- Tested on: Candida tropicalis
- experimental-protocol: Inhibition of Candida tropicalis ATCC750 chitin synthase at 300 ug/ml using UDP-GlcNAc as substrate incubated for 1 hr by microplate reader analysis relative to control
- stated-conditions: dose 300.0 µg/ml
Provide the reported inhibition of each item.
Your answer should be a number followed by the unit of measure.

Note to self: inhibition recorded for COc1cccc(NC(=O)/C=C/C(=O)N2CCCC23Cc2ccccc2NC3=O)c1 (stereo not drawn) was 48.3%

Note to self: inhibition recorded for COc1ccccc1NC(=O)/C=C/C(=O)N1CCCC12Cc1ccccc1NC2=O (stereo not drawn) was 65.2%

Note to self: inhibition recorded for Cc1cccc(NC(=O)/C=C/C(=O)N2CCCC23Cc2ccccc2NC3=O)c1 (stereo not drawn) was 44.1%

Note to self: inhibition recorded for Cc1cc(C)cc(NC(=O)/C=C/C(=O)N2CCCC23Cc2ccccc2NC3=O)c1 (stereo not drawn) was 45.7%

Note to self: inhibition recorded for O=C(/C=C/C(=O)N1CCCC12Cc1ccccc1NC2=O)Nc1ccc(Cl)cc1 (stereo not drawn) was 71.8%

Note to self: inhibition recorded for O=C(/C=C/C(=O)N1CCCC12Cc1ccccc1NC2=O)Nc1cccc2ccccc12 (stereo not drawn) was 53.6%

Note to self: inhibition recorded for O=C(/C=C/C(=O)N1CCCC12Cc1ccccc1NC2=O)Nc1ccc(F)cc1 (stereo not drawn) was 77.9%

Note to self: inhibition recorded for O=C(/C=C/C(=O)N1CCCC12Cc1ccccc1NC2=O)Nc1ccccc1[N+](=O)[O-] (stereo not drawn) was 80.9%

Note to self: inhibition recorded for COc1ccc(NC(=O)/C=C/C(=O)N2CCCC23Cc2ccccc2NC3=O)cc1 (stereo not drawn) was 50.9%

Note to self: inhibition recorded for O=C(/C=C/C(=O)N1CCCC12Cc1ccccc1NC2=O)Nc1ccccc1Cl (stereo not drawn) was 76.1%

Note to self: inhibition recorded for Cc1ccccc1NC(=O)/C=C/C(=O)N1CCCC12Cc1ccccc1NC2=O (stereo not drawn) was 47.2%

Note to self: inhibition recorded for NC(=O)OC[C@H](O)[C@@H](O)[C@H](N)C(=O)N[C@H](C(=O)O)[C@H]1O[C@@H](n2cc(CO)c(=O)[nH]c2=O)[C@H](O)[C@@H]1O was 86.1%

Note to self: inhibition recorded for O=C(/C=C/C(=O)N1CCCC12Cc1ccccc1NC2=O)Nc1ccc(Br)cc1 (stereo not drawn) was 56.4%

Note to self: inhibition recorded for Cc1ccc(NC(=O)/C=C/C(=O)N2CCCC23Cc2ccccc2NC3=O)cc1 (stereo not drawn) was 46.4%

Note to self: inhibition recorded for O=C(/C=C/C(=O)N1CCCC12Cc1ccccc1NC2=O)Nc1ccc(Cl)c(F)c1 (stereo not drawn) was 82.6%

Note to self: inhibition recorded for COc1cc(NC(=O)/C=C/C(=O)N2CCCC23Cc2ccccc2NC3=O)c(OC)cc1Cl (stereo not drawn) was 67.9%

Note to self: inhibition recorded for O=C(/C=C/C(=O)N1CCCC12Cc1ccccc1NC2=O)Nc1cccc([N+](=O)[O-])c1 (stereo not drawn) was 83.4%

Note to self: inhibition recorded for O=C(/C=C/C(=O)N1CCCC12Cc1ccccc1NC2=O)Nc1ccc(Cl)cc1Cl (stereo not drawn) was 73.7%

Sourced from ChEMBL document CHEMBL5154765
